- Test system: MV-4-11 (human, Acute Myeloid Leukemia cell line) cells
- Procedure text: Cell growth inhibition assay, GI50 of MV-4-11
- Format: cell-based
- Test settings: Homo sapiens, MV4-11, 72 h, MV-4-11 cells
Value kind: GI50 (nM)

Compound	Unit label	GI50
C=CCN1CC(=O)N2[C@@H](Cc3ccc(O)cc3)C(=O)N(Cc3cccc4c(C(=O)N5CCN(C6CC6)CC5)cn(C)c34)C[C@@H]2N1C(=O)NCc1ccccc1	nM	4.5
C=CCN1CC(=O)N2C(Cc3ccc(O)cc3)C(=O)N(Cc3cccc4c(C(=O)Nc5ccc(N6CCC(O)CC6)nc5)cn(C)c34)CC2N1C(=O)NCc1ccccc1 (centres unmarked)	nM	1.3
C=CCN1CC(=O)N2[C@@H](Cc3ccc(O)cc3)C(=O)N(Cc3cccc4c(C(=O)N5CCC(OC)CC5)cn(C)c34)C[C@@H]2N1C(=O)NCc1ccccc1	nM	9.2

P: C=CCN1CC(=O)N2C(Cc3ccc(O)cc3)C(=O)N(Cc3cccc4c(C(=O)Nc5ccc(N6CCN(CCO)CC6)nc5)cn(C)c34)CC2N1C(=O)NCc1ccccc1 (centres unmarked)
Q: C=CCN1CC(=O)N2[C@@H](Cc3ccc(O)cc3)C(=O)N(Cc3cccc4c(C(=O)N(C)Cc5ccncc5)cn(C)c34)C[C@@H]2N1C(=O)NCc1ccccc1
R: C=CCN1CC(=O)N2[C@@H](Cc3ccc(O)cc3)C(=O)N(Cc3cccc4c(-c5ccc(C(=O)N6CCN(S(C)(=O)=O)CC6)nc5)cn(C)c34)C[C@@H]2N1C(=O)NCc1ccccc1
Rank items: key GI50, increasing. Rank them, then answer with their labels in that order. P, R, Q

1: C=CCN1CC(=O)N2C(Cc3ccc(O)cc3)C(=O)N(Cc3cccc4c(C(=O)Nc5ccc(N6CCN(C7CC7)CC6)nc5)cn(C)c34)CC2N1C(=O)NCc1ccccc1 (centres unmarked)
2: C=CCN1CC(=O)N2[C@@H](Cc3ccc(O)cc3)C(=O)N(Cc3cccc4c(C(=O)N(C)CCO)cn(C)c34)C[C@@H]2N1C(=O)NCc1ccccc1
3: C=CCN1CC(=O)N2[C@@H](Cc3ccc(O)cc3)C(=O)N(Cc3cccc4c(-c5ccc(C(=O)N6CCN(C)CC6)o5)cn(C)c34)C[C@@H]2N1C(=O)NCc1ccccc1
4: C=CCN1CC(=O)N2[C@@H](Cc3ccc(O)cc3)C(=O)N(Cc3cccc4c(C(=O)Nc5cnc(N6CCN(C(C)C)CC6)nc5)cn(C)c34)C[C@@H]2N1C(=O)NCc1ccccc1
Rank items: key GI50, increasing. Rank them, then answer with their labels in that order. 1, 4, 3, 2

---

- Test system: MV-4-11 (human, Acute Myeloid Leukemia cell line) cells
- Procedure text: Cell growth inhibition assay, GI50 of MV-4-11
- Assay type: cell-based
- Test settings: Homo sapiens, MV4-11, 72 h, MV-4-11 cells
Value kind: GI50 (nM)

Worked cases, answers included:
Compound	System name	Unit label	GI50
C=CCN1CC(=O)N2C(CN(Cc3cccc4c(C(=O)Nc5ccc6c(c5)OCCO6)cn(C)c34)C(=O)[C@@H]2Cc2ccc(O)cc2)N1C(=O)NCc1ccccc1 (some centres unmarked)	MV-4-11 (human, Acute Myeloid Leukemia cell line) cells	nM	1.7
C=CCN1CC(=O)N2[C@@H](Cc3ccc(O)cc3)C(=O)N(Cc3cccc4c(C(=O)N5CCOCC5)cn(C)c34)C[C@@H]2N1C(=O)NCc1ccccc1	MV-4-11 (human, Acute Myeloid Leukemia cell line) cells	nM	18.4
C=CCN1CC(=O)N2[C@@H](Cc3ccc(O)cc3)C(=O)N(Cc3cccc4c(-c5ccc(C(=O)NC)cc5)cn(C)c34)C[C@@H]2N1C(=O)NCc1ccccc1	MV-4-11 (human, Acute Myeloid Leukemia cell line) cells	nM	1.2

A: C=CCN1CC(=O)N2C(Cc3ccc(O)cc3)C(=O)N(Cc3cccc4c(C(=O)Nc5ccc(N6CCC(N7CCCC7)CC6)nc5)cn(C)c34)CC2N1C(=O)NCc1ccccc1 (centres unmarked)
B: C=CCN1CC(=O)N2[C@@H](Cc3ccc(O)cc3)C(=O)N(Cc3cccc4c(C(=O)NCc5ccc(N(C)C)nc5)cn(C)c34)C[C@@H]2N1C(=O)NCc1ccccc1
Could you determine which record has the numerically smaller GI50? Candidates: A and B Reply briefly: the label of your chosen item. A
(A: 1.3 nM, B: 6.9 nM)
